Target System: Gal(a1-3)GalNAc
Test Description: glycan array binding signal (z-score within array); higher = stronger binding
Condition Context: glycan notation: IUPAC condensed, linker removed
Many of the other results were omitted from the sample, so the strongest signals are more common in it than they were.
Quantity: glycan array binding signal (z-score)

F17eG (Escherichia coli), Q9RH92 (protein) MTNFYKVFLAVFILVCCNISHAAVSFIGSTENDVGPSQSSYSRTHAMDNLPFVYNTGYNIGYQNANVWRISGGFCVGLDGKVDLPVVGSLDGQSIYGLTEEVGLLIWMGDTNYSRGTAMSGNSWENVFSGWCVGNYVSTQGLSVHVRPVILKRNSSAQYSVQKTSIGSIRMRPYNGSSAGSVQTTVNFSLNPFTLNDTVTSCRLLTPSAVNVSLAAISAGQLPSSGDEVVAGTTSLKLQCDAGVTVWATLTDATTPSNRSDILTLTGASTATGVGLRIYKNTDSTPLKFGPDSPVKGNENQWQLSTGTETSPSVRLYVKYVNTGEGINPGTVNGISTFTFSYQ = -0.302

The measurements presented in this section are drawn from the supplement of paper PMC8728848.
